System: BDF1 mice, s.c. Lewis lung carcinoma, T/C %
Assay notes: NCI In Vivo Anticancer Drug Screen. Data for tumor model Lewis Lung Carcinoma (subcutaneous) in B6D2F1 (BDF1) mice
Test settings: endpoint: mean tumor weight; dose: 12.5 mg/kg/injection; schedule: Q01DX011 (ip); vehicle: saline; higher = larger tumour
Results filed as inconclusive are left out.
Measure: T/C

Please review the following examples before continuing.
{"Molecule": "O=P1(NCCCl)OCCCN1CCCl (centres undefined)", "Experimental system": "BDF1 mice, s.c. Lewis lung carcinoma, T/C %", "T/C": "114 % of control"}
{"Molecule": "C[C@@H](N)[C@@H](O)c1ccccc1", "Experimental system": "BDF1 mice, s.c. Lewis lung carcinoma, T/C %", "T/C": "45 % of control"}
{"Molecule": "CCCNc1ncnc2c1cnn2C", "Experimental system": "BDF1 mice, s.c. Lewis lung carcinoma, T/C %", "T/C": "65 % of control"}
{"Molecule": "O=C(O)CCCc1ccc(N(CCCl)CCCl)cc1", "Experimental system": "BDF1 mice, s.c. Lewis lung carcinoma, T/C %", "T/C": "26 % of control"}
{"Molecule": "COc1ccc(-c2cc(=O)c3c(O)c(OC)c(OC)c(OC)c3o2)cc1", "Experimental system": "BDF1 mice, s.c. Lewis lung carcinoma, T/C %", "T/C": "95 % of control"}

Next item in the queue.
Task: # input molecule: O=C1C=CC(=Nc2ccc(O)c3ncccc23)c2cccnc21 ; wanted: its T/C
Result: 94 % of control
